Target: S159A mutant alkyltransferase (Homo sapiens, UniProt P16455, S159A)
Test: Inactivation of purified S159A mutant alkyltransferase in vitro
Type: biochemical
Conditions: ED50 No DNA, no DNA, 30 min at 37°C
observation.type: IC50 (nM)
Kindly provide the numeric value in nM only, without the unit symbol.

Endpoint output: IC50 of NCc1ccc(COc2nc(N)nc3nc[nH]c23)cc1 [Compound 1, O^6-[4-(Aminomethyl)benzyl]guanine] . Value?
160

====

Target: S159A mutant alkyltransferase (Homo sapiens, UniProt P16455, S159A)
Sequence (P16455 1-207 S159A): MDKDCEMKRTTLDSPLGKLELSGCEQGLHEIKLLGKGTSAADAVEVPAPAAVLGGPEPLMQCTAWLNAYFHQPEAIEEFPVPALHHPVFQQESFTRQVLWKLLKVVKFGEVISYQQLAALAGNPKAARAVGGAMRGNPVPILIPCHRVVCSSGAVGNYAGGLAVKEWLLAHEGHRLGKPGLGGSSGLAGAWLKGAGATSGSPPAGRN
Test: Inactivation of purified S159A mutant alkyltransferase in vitro
Assay type: biochemical
Settings: ED50 + DNA, + DNA, 30 min at 37°C
observation.type: IC50 (nM)
Kindly provide the numeric value in nM only, without the unit symbol.

Can you look up IC50 on S159A mutant alkyltransferase (Homo sapiens, UniProt P16455, S159A) for NCc1ccc(COc2nc(N)nc3nc[nH]c23)cc1 [Compound 1, O^6-[4-(Aminomethyl)benzyl]guanine] ?
28

These measurements were taken from paper PMC2645950.
